Values compiled from ChEMBL document CHEMBL1143641.

Listed next: entries and their corresponding Kd.
Biological target: Heat shock protein HSP 90-alpha (Homo sapiens)

Illustrative cases are given below, each with its answer.
{"Test Smiles": "CO[C@H]1/C=C\\C=C(/C)C(=O)NC2=CC(=O)C(N3CCC3)=C(C[C@@H](C)C[C@H](OC)[C@H](O)[C@@H](C)/C=C(\\C)[C@@H]1OC(=O)NN)C2=O", "Assayed Target": "Heat shock protein HSP 90-alpha (Homo sapiens)", "Observed Measurement": "> 100 µM"}
{"Test Smiles": "CO[C@H]1/C=C\\C=C(/C)C(=O)NC2=CC(=O)C(NCCN(C)C)=C(C[C@@H](C)C[C@H](OC)[C@H](O)[C@@H](C)/C=C(\\C)[C@@H]1OC(=O)NO)C2=O", "Assayed Target": "Heat shock protein HSP 90-alpha (Homo sapiens)", "Observed Measurement": "18 µM"}

Query compound follows.
[in] What value of Kd on Heat shock protein HSP 90-alpha (Homo sapiens) does CO[C@H]1C[C@H](C)CC2=C(NCCN(C)C)C(=O)C=C(NC(=O)/C(C)=C/C=C3/NC(=O)O[C@@H](/C(C)=C/[C@H](C)[C@H]1O)[C@H]3OC)C2=O have?
[out] > 100 µM

----------
Assay system Heat shock protein HSP 90-alpha (Homo sapiens); read-out recorded as Kd.

As a guide, the following entries are already answered.
{"Test Smiles": "CO[C@H]1/C=C\\C=C(/C)C(=O)NC2=CC(=O)C(N3CCC3)=C(C[C@@H](C)C[C@H](OC)[C@H](O)[C@@H](C)/C=C(\\C)[C@@H]1OC(=O)NO)C2=O", "Kd": "> 100 µM"}
{"Test Smiles": "CO[C@H]1/C=C\\C=C(/C)C(=O)NC2=CC(=O)C(NCCN(C)C)=C(C[C@@H](C)C[C@H](OC)[C@H](O)[C@@H](C)/C=C(\\C)[C@@H]1OC(=O)NCC(N)=O)C2=O", "Kd": "> 100 µM"}

[in] Given the entry CO[C@H]1/C=C\C=C(/C)C(=O)NC2=CC(=O)C(NCCN(C)C)=C(C[C@@H](C)C[C@H](OC)[C@H](O)[C@@H](C)/C=C(\C)[C@@H]1OC(=O)c1c[nH]cn1)C2=O , report its measured Kd.
[out] > 100 µM
